Reference for the values: patent US6423376B1

assay: Dynamic surface tension of aqueous solutions, maximum bubble pressure method; type: physicochemical; details: lowest surface tension in water; 6 b/s
Give rule met when the value for limiting γ (6 b/s) is at least 40 Dyne/cm. Give rule not met when it is less.

Examples from the recorded data:
# molecule, label value
data = [
    ("CC(C)(C)COC(=O)C(O)C(O)C(=O)OCC(C)(C)C (racemic) [Example 8, Dineopentyl-DL-tartrate]", "rule not met"),
    ("CCCCC(CC)COC(=O)C(O)C(O)C(=O)OCC(CC)CCCC (racemic) [Example 12, Di(2-ethylhexyl)-DL-tartrate]", "rule met"),
    ("CCC(C)COC(=O)C(O)C(O)C(=O)OCC(C)CC (racemic) [Example 7, Di(2-methyl-butyl)-DL-tartrate]", "rule not met"),
    ("O=C(OCc1ccccc1)C(O)C(O)C(=O)OCc1ccccc1 (racemic) [Example 11, Dibenzyl-DL-tartrate]", "rule met"),
    ("CC(C)CC(C)OC(=O)C(O)C(O)C(=O)OC(C)CC(C)C (racemic) [Example 10, Di(4-methyl-2-pentyl)-DL-tartrate]", "rule met"),
]

q: Is reported limiting γ (6 b/s) greater than or equal to 40 Dyne/cm here: CCCCCCOC(=O)C(O)C(O)C(=O)OCCCCCC (racemic) [Example 9, Dihexyl-DL-tartrate]
a: rule met

q: Do the same for CCCCCOC(=O)C(O)C(O)C(=O)OCCCCC (racemic) [Example 5, Dipentyl-DL-tartrate] please
a: rule not met

q: Do the same for CC(C)CCOC(=O)C(O)C(O)C(=O)OCCC(C)C (racemic) [Example 6, Diisoamyl-DL-tartrate] please
a: rule not met

q: Do the same for CCC(C)OC(=O)C(O)C(O)C(=O)OC(C)CC (racemic) [Example 4, Di-sec-butyl-DL-tartrate] please
a: rule not met
